The values you see were collected from PubChem BioAssay.

System: glycogen synthase kinase-3 (GSK3A per assay name; protocol says GSK3B)
experiment-summary: GSK3 binders on small-molecule microarrays, primary screen, biochemical, small-molecule microarray, 635 nm fluorescence, GSK3A (AID 1103); also: the record names both GSK3A and GSK3B
test-conditions: small-molecule microarray binding, fluorescence 635 nm; higher = more signal
quantity-kind: composite z-score

>>> result("CC(C)CNC(=O)[C@@H]1c2ccccc2C(=O)N(Cc2ccc(OC(F)(F)F)cc2)[C@H]1c1ccc(CO)cc1")
1.28
>>> result("CC(C)(C)OC(=O)CC[C@@]12N=C(c3ccc(OCCCO)cc3)O[C@@H]1c1ccccc1CN(Cc1ccccc1)C2=O")
1.19
>>> result("Cc1ccc(N2C(=O)c3ccccc3[C@](C)(C(=O)NCC(F)(F)F)[C@@H]2c2ccc(CO)cc2)nc1")
-1.29
>>> result("C=CCN1C(=O)[C@@]2(O[C@@H](CCn3cc(CCO)nn3)[C@H]([Si](C)(C)c3ccc(OC)cc3)[C@H]2C)c2cc(NC(=O)c3ccc(OC)cc3)ccc21")
0.546
>>> result("COc1ccc(CCNC(=O)[C@@]2(Sc3ccc(C)cc3)CC(=O)N(Cc3ccccc3)[C@@H]2c2ccc(CO)cc2I)cc1")
-0.407
>>> result("CCCC[C@@H](O)C1=C(C)C[C@H]2C(=O)N(C)C(=O)[C@H]2[C@H]1CO")
0.349
>>> result("COC(=O)c1c(CC[C@@H](CO)NC(=O)Nc2ccc(OC)cc2)oc(C(=O)Cc2ccccc2)c1C(=O)OC")
0.618
>>> result("C=C(C(=O)CC[C@@H](OC(C)=O)c1ccccc1OCCO)C(C)C")
-0.465

----------
target: Follistatin-related protein 3 (Homo sapiens) (UniProt O95633)
Sequence (O95633 whole entry, looked up): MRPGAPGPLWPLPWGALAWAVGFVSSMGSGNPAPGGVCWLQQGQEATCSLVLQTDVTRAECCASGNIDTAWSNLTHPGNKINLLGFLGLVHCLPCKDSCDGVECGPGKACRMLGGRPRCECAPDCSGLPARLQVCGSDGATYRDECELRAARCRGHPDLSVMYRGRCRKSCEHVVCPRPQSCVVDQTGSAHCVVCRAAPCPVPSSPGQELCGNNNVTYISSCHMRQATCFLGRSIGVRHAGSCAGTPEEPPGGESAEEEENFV
experiment-summary: FSTL3 binders on small-molecule microarrays, primary screen, biochemical, small-molecule microarray, 635 nm fluorescence (AID 1105);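 also: score merges emission near 667 nm and signal to noise per printed spot across three slides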
test-conditions: FSTL3 binding, higher = more signal
quantity-kind: composite z-score

>>> readout_number("CCCNC(=O)[C@@]1(Sc2ccc(C)cc2)CC(=O)N(Cc2cc(C(F)(F)F)cc(C(F)(F)F)c2)[C@@H]1c1ccc(CO)cc1I")
-0.372
>>> readout_number("O=C1O[C@H](c2ccccc2)[C@H](c2ccccc2)N2[C@H]1[C@@H](C(=O)NC[C@H](O)c1ccccc1)[C@]1(C(=O)Nc3ccc(C#CC4(O)CCCCCC4)cc31)[C@H]2c1ccc(O)cc1")
0.715
>>> readout_number("C=CCC(OC(C)=O)[C@@H]1[C@@H](N(Cc2cc3ccccc3o2)C(=O)c2ccc(-c3ccccc3)cc2)c2cc(OCCCO)ccc2N1C(=O)c1ccc(-c2ccccc2)cc1 (stereo partly specified)")
0.0956
>>> readout_number("CC(C)(C)OC(=O)CC[C@@]1(C(=O)N2CCOCC2)N=C(c2ccc(OCCCO)cc2)O[C@@H]1c1ccccc1")
-0.462
>>> readout_number("CO[C@H]1O[C@H](CO)[C@@H](OC(=O)Nc2ccccc2)[C@H](OC(=O)Nc2ccc3c(c2)OCO3)[C@H]1OC(=O)Nc1ccc2c(c1)OCO2")
0.292
>>> readout_number("O=C(O)[C@H]1C[C@H]2C(=O)N[C@@H](Cc3ccccc3)C(=O)N2[C@H]1c1ccc(O)cc1")
-0.192

----------
target: Follistatin-related protein 3 (Homo sapiens)
experiment-summary: FSTL3 binders on small-molecule microarrays, primary screen, biochemical, small-molecule microarray, 635 nm fluorescence (AID 1105);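 also: score merges emission near 667 nm and signal to noise per printed spot across three slides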
test-conditions: FSTL3 binding, higher = more signal
Label met when composite z-score is at or above 0.4; otherwise label not met.

>>> category_label("C=C(/C(=C/C[C@H](OC(C)=O)c1cccc(OCCO)c1)c1cc(C(=O)OC)ccc1OC)C(C)C")
"not met"
>>> category_label("CC(=O)NCCCC[C@@H]1NC(=O)[C@@H]2C[C@H](C(=O)O)[C@H](c3cccc(OCCO)c3)N2C1=O")
"met"
>>> category_label("COCCOC(=O)N1C(=O)[C@@]2(c3cc(C#CC4(O)CCCCCC4)ccc31)[C@H](C(=O)NC[C@H](O)c1ccccc1)[C@H]1C(=O)O[C@H](c3ccccc3)[C@H](c3ccccc3)N1[C@@H]2c1ccccc1OCCO")
"met"
>>> category_label("CC(C)C(=C=CC[C@H](O)c1ccc(OCCO)cc1)C[C@H](O)COCc1ccccc1")
"met"
>>> category_label("C=C(C(=O)CC[C@H](OC(C)=O)c1ccc(CO)o1)C(C)C")
"not met"

----------
experiment-summary: Ring1 mRNA increase in mouse ESCs, confirmation, esBAF inhibitor project, cell-based, mouse ESC, RT-qPCR, cherry-pick (AID 743176);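 also: Ring1 transcript normalised to actin housekeeping signal by TaqMan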
test-conditions: mouse ESC E14, Ring1 mRNA RT-qPCR fold change; Ring1 fold increase; at 7 µM; stronger effect = higher value
The list shows a part of the results.
quantity-kind: fold change

>>> result("CN(C)c1ccc(CSc2ccccc2)cc1")
1.14
>>> result("COc1ccc(C(=O)CCc2ccccc2O)c(OC)c1")
1.29
>>> result("Cc1nc(-c2ccccc2)sc1-c1nnc(C2CC2)o1")
1.23
>>> result("COC(=O)/C(=C1\\Oc2ccc(C(C)(C)C)cc2S1)C(F)(F)F")
1.4
>>> result("CCS(=O)(=O)n1nc(-c2ccc(OC)cc2)nc1SC")
1.25
>>> result("O=C(Nc1cccnc1Cl)c1cc(-c2ccccc2O)on1")
1.22

----------
experiment-summary: binders of probe aFGF10 on microarray, primary screen, stem cell growth factor project, biochemical, small-molecule microarray, fluorescence 635/667 (AID 1071);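 also: score merges 667 nm spot intensity and signal to noise from triplicate slides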
test-conditions: higher = more signal
quantity-kind: composite z-score

>>> readout_number("C#CCOc1ccc(C[C@H]2C(=O)O[C@H](Cc3ccccc3)[C@H](/C=C/C3CC3)N2CC#C)cc1")
-0.118
>>> readout_number("O=C1c2ccccc2[C@](Cc2ccccc2I)(C(=O)O)[C@H](c2ccc(CO)cc2)N1Cc1ccccc1Cl")
0.0635
>>> readout_number("C=CCC(OC(C)=O)[C@@H]1[C@@H](N(Cc2cc3ccccc3o2)C(=O)c2ccc(-c3ccccc3)cc2)c2cc(OCCCO)ccc2N1C(=O)c1ccc(-c2ccccc2)cc1 (stereo partly drawn)")
0.0925
>>> readout_number("CCOC(=O)C[C@H]1[C@H](OC(=O)Cc2ccc3c(c2)OCO3)[C@@H](NC(=O)c2ccc3ccccc3c2)c2cc(OCCCO)ccc2N1C(=O)c1ccc2ccccc2n1")
0.319
>>> readout_number("CC(C)(C)OC(=O)CC[C@@]12N=C(c3ccc(OCCCO)cc3)O[C@@H]1c1ccccc1CN(Cc1ccccc1)C2=O")
0.294
>>> readout_number("COC(=O)C(CC#Cc1ccc2c(c1)[C@]1(C(=O)N2)[C@H](c2ccccc2OCCO)N2[C@H](c3ccccc3)[C@H](c3ccccc3)OC(=O)[C@H]2[C@@H]1C(=O)N1CCCCCCC1)C(=O)OC")
1.28
>>> readout_number("COc1ccc([Si](C)(C)[C@@H]2[C@@H](CC(=O)N3CCC[C@H]3CO)O[C@]3(C(=O)N(Cc4ccc(I)cc4)c4ccccc43)[C@H]2C)cc1")
0.254
>>> readout_number("CC(C)(C)OC(=O)CC[C@@]12N=C(c3ccc(OCCCO)cc3)O[C@@H]1c1ccccc1N(Cc1ccccc1)C2=O")
-0.422
>>> readout_number("C[N+](C)(C)CCCC[C@@H]1NC(=O)[C@H]2C[C@@H](C(=O)NCCCCCN)[C@@H](c3cccc(OCCO)c3)N2C1=O")
0.372
>>> readout_number("C[N+](C)(C)CCCCNC(=O)[C@@H]1C[C@@H]2C(=O)NCC(=O)N2[C@@H]1c1cccc(OCCO)c1")
1.05
>>> readout_number("CC(C)C[C@@H]1NC(=O)[C@@]23C(=O)N[C@@H](Cc4ccccc4)C2[C@H](C)[C@@]2(C)O[C@H]2C3/C=C/C/C=C\\CNC(=O)[C@H](Cc2ccccc2)NC1=O (stereo partly drawn)")
-0.0045
>>> readout_number("O=C(NO)[C@]1(Cc2ccccc2)N=C(c2ccc(OCCCO)cc2)O[C@@H]1c1ccccc1")
-0.134
>>> readout_number("COC(=O)c1c(CC[C@@H](CO)NC(=O)Nc2ccc(OC)cc2)oc(C(=O)Cc2ccccc2)c1C(=O)OC")
0.411
>>> readout_number("COc1ccc([Si](C)(C)[C@H]2[C@H](CC(=O)N3Cc4ccccc4C[C@H]3CO)O[C@@]3(C(=O)N(Cc4cccc(N5C(=O)COc6ccccc65)c4)c4ccccc43)[C@@H]2C)cc1")
0.429
>>> readout_number("C=CCNC(=O)[C@@H]1[C@H]2C(=O)O[C@H](c3ccccc3)[C@H](c3ccccc3)N2[C@H](c2ccc(O)cc2)[C@@]12C(=O)Nc1ccccc12")
0.0546
>>> readout_number("CO[C@H]1O[C@H](CO)[C@@H](OC(=O)Nc2ccccc2)[C@H](OC(=O)Nc2ccccc2-c2ccccc2)[C@@H]1OC(=O)Nc1ccccc1-c1ccccc1")
0.901
>>> readout_number("CC(C)CNC(=O)[C@@H]1c2ccccc2C(=O)N(Cc2ccc(OC(F)(F)F)cc2)[C@H]1c1ccc(CO)cc1")
0.34
>>> readout_number("C[C@@H](OCc1ccccc1)C1NC(=O)[C@@]23C(=O)N[C@@H](Cc4ccccc4)C2[C@H](C)[C@@]2(C)O[C@H]2C3/C=C/C/C=C\\CNC(=O)[C@@H]2CCCN2C1=O (stereo partly drawn)")
-0.595
>>> readout_number("C=C(COC)C(=O)CC[C@@H](OC(=O)c1ccccc1-c1ccccc1C(=O)O)c1cccc(OCCO)c1")
0.457
>>> readout_number("COc1ccc(/C=C/C(=O)c2cccc(OCC(=O)OC(C)(C)C)c2)cc1")
-0.672
>>> readout_number("NCCCCCNC(=O)[C@H]1C[C@H]2C(=O)NCC(=O)N2[C@H]1c1ccc(O)cc1")
0.847
>>> readout_number("C=C(/C(=C/C[C@H](OC(=O)c1ccncc1)c1cccc(OCCO)c1)c1cc(C(=O)OC)ccc1OC)C(C)C")
0.382
>>> readout_number("COc1ccc(C(=O)Nc2cccc(CN3C(=O)[C@@]4(O[C@@H](CCO)[C@H]([Si](C)(C)c5ccc(OC)cc5)[C@H]4C)c4ccccc43)c2)cc1")
0.19
>>> readout_number("COCCCNC(=O)[C@@]1(Cc2ccccc2CN=[N+]=[N-])COC(c2ccc(OCCCO)cc2)=N1")
1.07
>>> readout_number("CC(C)[Si](C#C[Si](C(C)C)(C(C)C)C(C)C)(O[C@H](C)c1cn([C@H](C)c2ccccc2)nn1)C(C)C")
0.357
>>> readout_number("C=C(COC)/C(=C/C[C@H](OC(C)=O)c1ccc(CO)o1)c1cnc2ccccc2c1")
0.665
>>> readout_number("Cc1ccc(S[C@]2(C(=O)NC3CC3)CC(=O)N(Cc3ccccc3C(F)(F)F)[C@@H]2c2ccc(CO)cc2I)cc1")
0.152
>>> readout_number("CCCC[C@@H](O)C1=C(C)C[C@H]2C(=O)N(C)C(=O)[C@H]2[C@H]1CO")
0.469
